# Tested on: PRMT1 (protein arginine N-methyltransferase 1)
# Assay: PRMT1 binders on small-molecule microarrays, primary screen, biochemical, small-molecule microarray, 635 nm fluorescence (AID 1088);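 also: binding of Prmt1 protein to compounds spotted on small-molecule microarray slides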
# Study conditions: small-molecule microarray binding, higher = more signal
Label rule, in plain words: composite z-score of 0.4 and up is Criterion met, under 0.4 is Criterion not met.

Molecule	Discrete label
COC(=O)C1=C(C)[C@@H](O)[C@@H](C)[C@H](c2c(OC)c(OC)c(C)c(OC)c2OC)O1	Criterion not met
CCOC(=O)CCN1C(=O)[C@H]2[C@H]3[C@H](O)C=CC(=O)[C@@H]3CC[C@H]2C1=O	Criterion not met
CC(=O)C[C@H](O)[C@@H](NC(=O)OC(C)(C)C)C(C)C	Criterion not met

Quick check, composite z-score >= 0.4? CCN1C(=O)[C@H]2[C@H]3[C@H](O)[C@H](O)CC(=NOCc4ccccc4)[C@H]3CC[C@H]2C1=O
Criterion not met

Quick check, composite z-score >= 0.4? CC(C)[C@@H](OCc1ccccc1)[C@H](C)C=NOC[C@@H](C)[C@H](OCc1ccccc1)C(C)C
Criterion not met

Quick check, composite z-score >= 0.4? COc1ccc([Si](C)(C)[C@@H]2[C@@H](CC(=O)N3CCC[C@H]3CO)O[C@]3(C(=O)N(Cc4cccc(N5CCC5=O)c4)c4ccccc43)[C@H]2C)cc1
Criterion met

Quick check, composite z-score >= 0.4? O[C@@H](Cc1ccccc1)[C@H]1C2C=CCCC(c3ccccc3)=C2CN1Cc1cccc(Cl)c1 (stereo partly specified)
Criterion met

Quick check, composite z-score >= 0.4? CO[C@H]1COC(=O)[C@H](C)COC(=O)CC=C[C@@H](C)[C@H](OC)COC(=O)CC=C[C@@H]1C
Criterion met

Quick check, composite z-score >= 0.4? C[C@@H]1C=CCC(=O)OC[C@H](C)C(=O)N2CCC[C@H]2C(=O)OC1
Criterion met

Quick check, composite z-score >= 0.4? COc1ccc(O[C@H]2C=C[C@@H](c3ccccc3)O[C@@H]2COC(=O)CCC(C)=NO[C@@H](C)c2cc(-c3c(C)cc(C)cc3C)no2)cc1
Criterion not met
